tested on: RPMI-8226 leukemia; test: NCI tumour cell line growth inhibition, 48 h; in the data active = GI50 below about 0.43 µM; inactive = the rest
Possible outcomes: active, inactive

COMPOUND: CC(=O)NC1C(OC[C@@H](CC(=O)N[C@@H](CC(=O)O)CC(=O)N[C@H](CC(=O)N[C@@H](CCCN)CC(=O)N[C@@H](CCCN)CC(=O)N[C@H](CC(N)=O)C(C)C)C(C)C)NC(=O)C[C@@H](N)C(C)C)OC(CO)C(O)C1O (stereo partly drawn)
CLASS LABEL: inactive
--
COMPOUND: CCOC(=O)/C(C=Nc1ccc(-c2nc3ccccc3[nH]2)cc1)=C(/C)O
CLASS LABEL: inactive
--
COMPOUND: COc1ncnc2c(-c3ccccc3)cn(COCc3ccccc3)c12
CLASS LABEL: inactive
--
COMPOUND: COc1ccc(-c2nn(-c3cccc(Cl)c3)cc2-c2cc(-c3cccs3)[nH]c(=S)n2)cc1
CLASS LABEL: inactive
--
COMPOUND: CCN1C(=O)N(CC)C2C1NN=c1s/c(=C\c3cccc(F)c3)c(=O)n12 (stereo not drawn)
CLASS LABEL: active
--
COMPOUND: C=C1C(=O)O[C@H]2[C@H]1CC/C(CNC(=O)/C=C/c1cc(OC)c(OC)c(OC)c1)=C\CC[C@@]1(C)O[C@@H]21
CLASS LABEL: inactive
--
COMPOUND: C=C(C)C(O)CCC1(C)C=Cc2c(c(C)cc3c2[nH]c2ccccc23)O1 (stereo not drawn)
CLASS LABEL: inactive
--
COMPOUND: CCOC(=O)c1c(C)nc2c(c1N)CC(=O)N2Cc1ccc(OC)cc1
CLASS LABEL: inactive
